Data credit: ChEMBL document CHEMBL3612021

Each entry below carries its recorded Emax.
Target: UniProtKB P30542
Sequence (P30542 whole entry): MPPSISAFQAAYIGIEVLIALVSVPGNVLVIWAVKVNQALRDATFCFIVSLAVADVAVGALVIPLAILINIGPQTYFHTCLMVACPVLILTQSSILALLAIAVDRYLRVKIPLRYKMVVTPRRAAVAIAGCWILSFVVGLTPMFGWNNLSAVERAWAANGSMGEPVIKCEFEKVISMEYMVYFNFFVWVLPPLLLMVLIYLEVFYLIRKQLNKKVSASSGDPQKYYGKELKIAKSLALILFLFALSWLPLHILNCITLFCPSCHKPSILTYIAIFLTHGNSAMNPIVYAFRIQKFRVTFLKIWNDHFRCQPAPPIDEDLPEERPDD
Test: Agonist activity at human adenosine A1 receptor expressed in CHO cell membranes by [35S]GTPgammaS binding assay relative to 100 uM CPA
Assay type: functional
The reply should be a number in %, with the unit left off.

{"Compound": "COc1ccc(-c2c(C#N)c(N)nc(SCc3csc(-c4ccccc4)n3)c2C#N)cc1", "System": "UniProtKB P30542", "Emax, %": 105}
{"Compound": "COc1ccc(-c2c(C#N)c(N)nc(SCc3csc(-c4ccccn4)n3)c2C#N)cc1", "System": "UniProtKB P30542", "Emax, %": 99}
{"Compound": "COc1ccc(-c2c(C#N)c(N)nc(SCc3csc(-c4ccc(Cl)cc4)n3)c2C#N)cc1", "System": "UniProtKB P30542", "Emax, %": 83}
{"Compound": "COc1ccc(-c2c(C#N)c(N)nc(SCc3cscn3)c2C#N)cc1", "System": "UniProtKB P30542", "Emax, %": 55}
{"Compound": "COc1ccc(-c2c(C#N)c(N)nc(SCc3csc(N4CCOCC4)n3)c2C#N)cc1", "System": "UniProtKB P30542", "Emax, %": 104}

Lab note: compound N#Cc1c(N)nc(SCc2csc(-c3ccc(Cl)cc3)n2)c(C#N)c1-c1ccc(OCCO)cc1 tested on UniProtKB P30542; recorded Emax was 97

* * *

Target: Adenosine receptor A2b (Homo sapiens) (UniProt P29275)
Sequence (P29275 whole entry): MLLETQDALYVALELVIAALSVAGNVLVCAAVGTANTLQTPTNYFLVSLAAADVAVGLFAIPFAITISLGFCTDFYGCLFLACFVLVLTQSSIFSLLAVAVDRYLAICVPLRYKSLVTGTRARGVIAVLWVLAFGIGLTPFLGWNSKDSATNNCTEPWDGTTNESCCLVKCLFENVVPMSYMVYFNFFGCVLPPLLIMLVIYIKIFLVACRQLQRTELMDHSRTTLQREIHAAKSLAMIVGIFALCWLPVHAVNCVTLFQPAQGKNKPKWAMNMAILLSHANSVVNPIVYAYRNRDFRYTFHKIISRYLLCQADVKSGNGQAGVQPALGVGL
Assay: Displacement of [3H]PSB603 from human adenosine A2B receptor expressed in CHO cell membranes at 1 uM by competition association assay
Readout Label: inhibition

{"Compound": "N#Cc1c(N)nc(SCc2csc(-c3ccc(Cl)cc3)n2)c(C#N)c1-c1ccc(OCCO)cc1 [CAPADENOSON]", "Readout Label": "inhibition", "Result": "2.5%"}
{"Compound": "COc1ccc(-c2c(C#N)c(N)nc(SCc3csc(-c4ccccc4)n3)c2C#N)cc1", "Readout Label": "inhibition", "Result": "63%"}
{"Compound": "COc1ccc(-c2c(C#N)c(N)nc(SCc3csc(-c4ccccn4)n3)c2C#N)cc1", "Readout Label": "inhibition", "Result": "0%"}

inhibition in this record for COc1ccc(-c2c(C#N)c(N)nc(SCc3csc(N4CCOCC4)n3)c2C#N)cc1 : 0%

inhibition in this record for COc1ccc(-c2c(C#N)c(N)nc(SCc3csc(-c4ccc(Cl)cc4)n3)c2C#N)cc1 : 20%

* * *

Target: Adenosine receptor A1 (Homo sapiens)
Test: Displacement of [3H]DPCPX from human adenosine A1 receptor expressed in CHO cell membranes at 1 uM by competition association assay
Readout Label: inhibition

inhibition in this record for CC(C)(C)Nc1nc(SCc2csc(-c3ccc(Cl)cc3)n2)nc(-c2ccc3c(c2)OCO3)c1C#N : < 80%

inhibition in this record for N#Cc1c(N)nc(SCc2csc(N3CCOCC3)n2)c(C#N)c1-c1ccc(O)cc1 : > 80%

inhibition in this record for N#Cc1c(NC2CCCCC2)nc(SCc2csc(-c3ccc(Cl)cc3)n2)nc1-c1ccc2c(c1)OCO2 : < 80%

inhibition in this record for N#Cc1c(N)nc(SCc2csc(-c3cccc(F)c3)n2)c(C#N)c1-c1ccc(O)cc1 : > 80%

inhibition in this record for N#Cc1c(N)nc(SCc2csc(-c3cccc(Cl)c3)n2)c(C#N)c1-c1ccc(O)cc1 : > 80%

inhibition in this record for COc1ccc(-c2c(C#N)c(N)nc(SCc3coc(-c4ccc(Cl)cc4)n3)c2C#N)cc1 : > 80%

inhibition in this record for COc1ccc(-c2c(C#N)c(N)nc(SCc3csc(-c4ccccc4)n3)c2C#N)cc1 : > 80%

inhibition in this record for N#Cc1c(N)nc(SCc2coc(-c3ccc(Cl)cc3)n2)nc1-c1ccc2c(c1)OCO2 : > 80%

inhibition in this record for N#Cc1c(N)nc(SCc2nc(-c3ccc(Cl)cc3)sc2Br)c(C#N)c1-c1ccc2c(c1)OCO2 : > 80%

inhibition in this record for CCOc1ccc(-c2nc(SCc3csc(-c4ccc(Cl)cc4)n3)nc(N)c2C#N)cc1 : < 80%

inhibition in this record for COc1ccc(-c2c(C#N)c(N)nc(SCc3csc(-c4ccc(Cl)cc4)n3)c2C#N)cc1 : > 80%

inhibition in this record for COc1ccc(-c2nc(SCc3coc(-c4cccc(F)c4)n3)nc(N)c2C#N)cc1 : < 80%

inhibition in this record for N#Cc1c(N)nc(SCc2csc(-c3ccccc3F)n2)nc1-c1ccc2c(c1)OCO2 : > 80%

inhibition in this record for N#Cc1c(N)nc(SCc2csc(-c3ccccc3)n2)c(C#N)c1-c1ccc(O)cc1 : > 80%
